- assay comment: label from the status in PepcDB records
endpoint label: protein production

Use the examples below as a reference point.
[
  {
    "construct sequence": "MKHYTVAINGLPQEFEGFTILHLTDLHAKKYGDQQDKLIRLINRQNFDMVAMTGDFIDKDNPDLEPTLELIQGLAAKPIFFVPGNHEWRYDFSIKSSLEEHGVKILDNKNAELARGDARLWIAGVDDPYLHRDKLEEALHGIADAQPKLLLAHAPNIFKPAAESGVELVLVGHTHGGQVRLPLIGAIVAPGQGLFPQYDYGHFTAGSTNMIVNGGLGESTLPLRFCSRPEIVLVKLVSAPLEHHHHHH",
    "protein production": "failed"
  },
  {
    "construct sequence": "MKRFVLFLLFMCVCVQAYAEQDYFFRDFKSRDLPQKLHLDKKLSQTIQPCMQLNASKHYTSTGVREPDKCTKSFKKSALMSYDLALGYLVSKNKQYGLKAIEILNAWAKELQSVDTYQSEDNINFYMPYMNMAYWFVKKAFPSPEYEDFIKRMRQYSQSALNTNHGAWGILFDVSSALALDDNALLHNSANRWQEWVFKAIDENGVIASAITRSDTSDYHGGPTKGIKGIAYTNFALLALTISGELLFENGYDLWGSGAGKRLSVAYNKVATWILNPETFPYFQPNLIGVHNNAYFIILAKHYSSPSANELLKQGDLHEDGFRLKLRSP",
    "protein production": "failed"
  },
  {
    "construct sequence": "MKQRTLPAAFLLALSIASLAGCASPTVITLNDGREIQAVDTPKYDEDSGFYEFKQLDGKQTRINKDQVRTVKDLLEHHHHHH",
    "protein production": "failed"
  },
  {
    "construct sequence": "MNLSQQNQHSNPITEAAKATFPYSVPMIAGFLFLGIAYGIYMKALGFGFLYPTLMALLIYAGSVEFIAAGALIAPFSPISVLLITLMISARQIFYGISMLEKYGIHIGKKRWYLITTLVDESFSLNYMAKIPPHLDKGWYMFFVSLYLHIYWVLGAAMGNLFGTVLPFNLKGVEFSMTALFLVIFAENWLKGKSHESSLLGLGIALVFLLIIGKEYFLIPTLIGIWLILTMRITKLETKLESLK",
    "protein production": "failed"
  },
  {
    "construct sequence": "MSLGHGDEGITPLSSEIVNFSTTVWTDGDKDHLEKHLVENLNCIRHYPEPDAGTLRQMLAKRNSVDNNAILVTNGPTAAFYQIAQAFRGSRSLIAIPSFAEYEDACRMYEHEVCFYPSNEDIGEADFSNMDFCWLCNPNNPDGRLLQRTEILRLLNDHPDTTFVLDQSYVSFTTEEVIRPADIKGRKNLVMVYSFSHAYGIPGLRIGYIVANKDFMKRVAAFSTPWAVNALAIEAAKFILIHPAQFTLPIRKWQRNTVDFITALNRLDGVEVHPSGTTFFLLRLKKGTAAELKKYMLEEYNMLIRDASNFRGLDESYVRITTQRPAQNQLFIKALETFLEKYEGHHHHHH",
    "protein production": "not failed"
  }
]

Measured protein production, PKTGPTMTKELVFSSNIGQHDLDTKSKQIQQWIEKKYHVQVTIKRRKDAEQSEEETEEIFNQILQTMPDIATFSSRPKAIRGGTASMCVFRHLSKKEEK : not failed

Consider MSLDFHGVFPYLVSPVDAEGRVRADVMGRLCDDLIQAGVHGLTPLGSTGEFAYLGTAQREAVVRATIEAAQRRVPVVAGVASTSVADAVAQAKLYEKLGADGILAILEAYFPLKDAQIESYFRAIADAVEIPVVIYTNPQFQRSDLTLDVIARLAEHPRIRYIKDASTNTGRLLSIINRCGDALQVFSASAHIPAAVMLIGGVGWMAGPACIAPRQSVALYELCKAQRWDEALMLQRKLWRVNEAFAKFNLAACIKAGLALQGYDVGDPIPPQAALTAEERKAVEKVLAEIAEGHHHHHH . Its measured protein production is not failed

So, MSCTGFWRKLASGEECGAAARLLGAVLAIPAALYGLVVRLRALAYARGLSTVRHLDRPVISVGNLTVGGTGKTPMVAYLARRLMARGKRVAVISRGYGGSLEGETRIVSDGRTIVLSAAEAGDEPVHLATSVPGLMTVIGTDRYTAGLLALEQLDPDVFILDDGYQHLRLHRDLNILLMDCNRPLGNGRTLPAGLLREPQTAVRRADLVVYTRCTGGKAPAVHGMIPSCRAGHALTGAALLPDGEVQPLAALRGLRGVACAGIAEPEGFFDALRREGLDIVAAIPFADHASYGEREVSTLREAAAGADYLITTGKDGVKLSAHLARLLPVYATVLEMRPLDPAPLEAALDKVL ? Its protein production was failed

// sample QNVLDLHGLHVDEALEHLMRVLEKKTEEFKQNGGKPYLSVITGRGNHSQGGVARIKPAVIKYLISHSFRFSEIKPGCLKVMLK , its protein production was not failed

Memo: MAEHIITLVLSGERLDVTTSTPFVVALRDLLYEGDWELLKEDMKKKENIMKEVQTCEKLEKVVHLDETVYEPLIFPEFQEWLREENITPKDFKNVSLKGLYDLALEYADRNLYDIAHDIIKFMLDIDENYAPAYELKGSLLVEQGKIEEGIKFLDKAVEIDPWLVQAYASLGEAYYNLGDYEKAIHYWERELEYNPNDKITYFMITEAYYEMNRKDLAVKTLERLLEIDPDNIPALYQLSQLYRELGNEEKAREMEEKIMNCKPKYPTELEPWARVMLKHGRYKEVAEELEKIVESSPLNTLARLLLVVPYVKLGQIDKAREILDDIGQSNFWYYYGKKEILDELLTEEEKRACGIS , reported protein production: failed

// protein production lookup, sequence = MIKVEKEVSNDYIIKGFKHFTQLATEYFQGHPDCNAARKRMRDTIDANLQLKAELTAASYTEHTTLLSPKMQQIIWAHWGPPIISLSENHANELEHHHHHH , result: failed

In plain terms, MLIGEIMDLNLKNFLEDREEIIRDAKRKDEKSFKDFKKIVEEIKERENKDKIVCDFTEYNPLHKGHKYALEKGKEHGIFISVLPGPLERSGRGIPYFLNRYIRAEMAIRAGADIVVEGPPMGIMGSGQYMRCLIKMFYSLGAEIIPRGYIPEKTMEKVIDCINKGYHIQVKPYKIICIETGEILGEKLNIDNYVIASMSQMIYKLNREGLKFNPKFVFVKRLEGISGTKIREAIFSGKFEDIKNMLPKTTLSILKELYDNGKLNELILKRFEDRILETANEYDLYEYLPSNVAEILEKKRPFNNIEEIKNSLPYGFSRHFRERILSKLEARIPNETLSKYINNYPAKIKILAVKL has a documented protein production of not failed
